assay notes: Stability in aqueous medium (dimethyl sulfoxide/Dulbecco's Modified Eagle Medium) by UV-Vis spectroscopy
Assay type: physicochemical
conditions used: 5% dimethyl sulfoxide/95% Dulbecco's Modified Eagle Medium; time 0.5 h; band 292-296 nm (λmax in column head)
Description: The stability of the complexes 4-11 in organic and aqueous media was evaluated over 24 h by UV-Vis spectroscopy at room temperature, in dark, on a Jasco V-660 spectrometer using quartz cuvettes (1 cm optical path length). […]
property: Relative variation of the maximum absorbance of the π→π* transitions (%)
Give bare numbers, in %.

Known Relative variation of the maximum absorbance of the π→π* transitions results, listed for orientation:
1) NNC(=O)C1=C[CH]([Ru-]2([PH](c3ccccc3)(c3ccccc3)c3ccccc3)[n+]3ccccc3-c3cccc[n+]32)C=C1.O=S(=O)([O-])C(F)(F)F (stereo not drawn); 0.1
2) COc1cc[n+]2c(c1)-c1cc(O)cc[n+]1[Ru-]2([CH]1C=CC=C1)[PH](c1ccccc1)(c1ccccc1)c1ccccc1.O=S(=O)([O-])C(F)(F)F (stereo not drawn); −1.7
3) CC(=O)C1=C[CH]([Ru-]2([PH](c3ccccc3)(c3ccccc3)c3ccccc3)[n+]3ccccc3-c3cccc[n+]32)C=C1.O=S(=O)([O-])C(F)(F)F (stereo not drawn); −0.1
4) CCC(=O)C1=C[CH]([Ru-]2([PH](c3ccccc3)(c3ccccc3)c3ccccc3)[n+]3ccccc3-c3cccc[n+]32)C=C1.O=S(=O)([O-])C(F)(F)F (stereo not drawn); −0.2
5) O=C(Cc1ccccc1)C1=C[CH]([Ru-]2([PH](c3ccccc3)(c3ccccc3)c3ccccc3)[n+]3ccccc3-c3cccc[n+]32)C=C1.O=S(=O)([O-])C(F)(F)F (stereo not drawn); −0.3

Okay, next one:
Exercise: I have this molecule here, CCOC(=O)Oc1cc[n+]2c(c1)-c1cc(OC)cc[n+]1[Ru-]2([CH]1C=CC=C1)[PH](c1ccccc1)(c1ccccc1)c1ccccc1.O=S(=O)([O-])C(F)(F)F (stereo not drawn) , and I need its recorded Relative variation of the maximum absorbance of the π→π* transitions.
Solution: −0.3
